measurementTarget: UniProtKB P29597
Sequence (P29597 897-1176): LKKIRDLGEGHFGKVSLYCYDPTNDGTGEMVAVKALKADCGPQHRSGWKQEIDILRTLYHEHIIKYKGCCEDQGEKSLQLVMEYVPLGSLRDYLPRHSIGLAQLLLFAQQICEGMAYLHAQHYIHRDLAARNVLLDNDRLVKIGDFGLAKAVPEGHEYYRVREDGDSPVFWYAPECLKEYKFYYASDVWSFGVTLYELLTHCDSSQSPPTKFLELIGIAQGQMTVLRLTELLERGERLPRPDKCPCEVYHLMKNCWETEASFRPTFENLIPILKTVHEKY
protocol: JAK Caliper Enzyme Assay at 1 mM ATP, TYK2
Assay type: biochemical
pIC50: −log10 of the molar value.
propertyMeasured: pIC50

>>> print(df.to_string())
                                   molecule  experimentalvalue
0  Cn1cc(-c2cc(-c3cnn(C4(CC#N)CC(C#N)C4)n3)c3cccnc3c2)cn1 (stereo not shown)               7.96
1  Cn1cc(-c2cc3ncccc3c(-c3ccn(C4(CC#N)CN(CC(F)(F)F)C4)n3)n2)ccc1=O               6.75
2  CS(=O)(=O)N1CC(CC#N)(n2ccc(-c3nc(-c4cnn(CCO)c4)cc4ncccc34)n2)C1               7.48
3  N#CCC1(n2ccc(-c3nc(-c4cncc(F)c4)cc4ncccc34)n2)CN(CC(F)(F)F)C1               5.86
4  CC(=O)NC1CC(CC#N)(n2ccc(-c3nc(-c4cc[nH]n4)cc4ncccc34)n2)C1 (stereo not shown)               6.14
5  C=C(CO)n1cc(-c2cc3ncccc3c(-c3ccn(C4(CC#N)CN(S(C)(=O)=O)C4)n3)n2)cn1               6.60
6  Cc1cc(-c2cc3ncccc3c(-c3ccn(C4(CC#N)CN(S(C)(=O)=O)C4)n3)n2)ccn1               7.31
